# System: Escherichia coli TOP10;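 also: peptides expressed intracellularly from a pBAD plasmid library in pooled LB shake-flask culture, induced with 0.3% L-arabinose, DNA abundance read by NGS, three biological replicates, DESeq2 with apeglm shrinkage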
# ASSAY COMMENT: shrunken log2 fold change of peptide-encoding DNA abundance (4.5 h post-induction vs induction); higher = less antimicrobial activity (less host growth inhibition)
# ASSAY SETUP: time post-induction: 4.5 h; library: site-saturation at positions 5, 18, 19, 20
Would you mind labelling by shrunken log2 fold change? At or over 0.02 is Satisfied, under is Not satisfied.

Determine whether this sequence has shrunken log2 fold change no lower than 0.02: `RRIRQRPPRLPRPRPRPSCGPRP` Satisfied

Determine whether this sequence has shrunken log2 fold change no lower than 0.02: `RRIRTRPPRLPRPRPRPELKPRP` Satisfied

Determine whether this sequence has shrunken log2 fold change no lower than 0.02: `RRIRPRPPRLPRPRPRPCDEPRP` Satisfied

Determine whether this sequence has shrunken log2 fold change no lower than 0.02: `RRIRFRPPRLPRPRPRPPMPPRP` Satisfied

Determine whether this sequence has shrunken log2 fold change no lower than 0.02: `RRIRNRPPRLPRPRPRPRRPPRP` Satisfied

Determine whether this sequence has shrunken log2 fold change no lower than 0.02: `RRIRQRPPRLPRPRPRPHHKPRP` Not satisfied

Determine whether this sequence has shrunken log2 fold change no lower than 0.02: `RRIRGRPPRLPRPRPRPNHFPRP` Not satisfied

Determine whether this sequence has shrunken log2 fold change no lower than 0.02: `RRIRDRPPRLPRPRPRPPIGPRP` Satisfied

Determine whether this sequence has shrunken log2 fold change no lower than 0.02: `RRIRSRPPRLPRPRPRPVHCPRP` Not satisfied

Determine whether this sequence has shrunken log2 fold change no lower than 0.02: `RRIRERPPRLPRPRPRPGQCPRP` Satisfied

Determine whether this sequence has shrunken log2 fold change no lower than 0.02: `RRIRWRPPRLPRPRPRPGPFPRP` Satisfied

Determine whether this sequence has shrunken log2 fold change no lower than 0.02: `RRIRRRPPRLPRPRPRPIMEPRP` Satisfied

Determine whether this sequence has shrunken log2 fold change no lower than 0.02: `RRIRPRPPRLPRPRPRPIYSPRP` Not satisfied

Determine whether this sequence has shrunken log2 fold change no lower than 0.02: `RRIRVRPPRLPRPRPRPMKNPRP` Not satisfied

Determine whether this sequence has shrunken log2 fold change no lower than 0.02: `RRIRKRPPRLPRPRPRPYSWPRP` Not satisfied

Determine whether this sequence has shrunken log2 fold change no lower than 0.02: `RRIRLRPPRLPRPRPRPHCEPRP` Not satisfied

Determine whether this sequence has shrunken log2 fold change no lower than 0.02: `RRIRQRPPRLPRPRPRPSHYPRP` Not satisfied

Determine whether this sequence has shrunken log2 fold change no lower than 0.02: `RRIRSRPPRLPRPRPRPLLHPRP` Not satisfied

Determine whether this sequence has shrunken log2 fold change no lower than 0.02: `RRIRTRPPRLPRPRPRPIKKPRP` Not satisfied

Determine whether this sequence has shrunken log2 fold change no lower than 0.02: `RRIRFRPPRLPRPRPRPLWYPRP` Not satisfied

Determine whether this sequence has shrunken log2 fold change no lower than 0.02: `RRIRMRPPRLPRPRPRPHSDPRP` Satisfied

Determine whether this sequence has shrunken log2 fold change no lower than 0.02: `RRIRMRPPRLPRPRPRPYDMPRP` Not satisfied

Determine whether this sequence has shrunken log2 fold change no lower than 0.02: `RRIRFRPPRLPRPRPRPGFPPRP` Satisfied

Determine whether this sequence has shrunken log2 fold change no lower than 0.02: `RRIRIRPPRLPRPRPRPYDSPRP` Not satisfied

Determine whether this sequence has shrunken log2 fold change no lower than 0.02: `RRIRPRPPRLPRPRPRPSDDPRP` Not satisfied

Determine whether this sequence has shrunken log2 fold change no lower than 0.02: `RRIRMRPPRLPRPRPRPDEQPRP` Satisfied

Determine whether this sequence has shrunken log2 fold change no lower than 0.02: `RRIRFRPPRLPRPRPRPVGTPRP` Not satisfied

Determine whether this sequence has shrunken log2 fold change no lower than 0.02: `RRIRNRPPRLPRPRPRPDNHPRP` Not satisfied

Determine whether this sequence has shrunken log2 fold change no lower than 0.02: `RRIRERPPRLPRPRPRPKFCPRP` Not satisfied

Determine whether this sequence has shrunken log2 fold change no lower than 0.02: `RRIRDRPPRLPRPRPRPPLMPRP` Satisfied

Determine whether this sequence has shrunken log2 fold change no lower than 0.02: `RRIRIRPPRLPRPRPRPSEEPRP` Not satisfied
